- TARGET OR SYSTEM: endogenous BCL6 in OCI-Ly1 cells (Homo sapiens, UniProt P41182)
- EXPERIMENT NOTES: cell-based
- CONDITION DETAILS: OCI-Ly1, read-out: MSD degrader assay [OCI-Ly1] Dmax, mean maximal degradation of BCL6; OCI-Ly1 cells, 2 h
Listed here: items and their measured Dmax.
Respond numerically; units are % and should not be typed.

> print(dat)
                                   compound                          target.or.system  readout.value
1  C[C@H]1CCCN(c2ncc(Cl)c(Nc3ccc4c(c3)c3c(c(=O)n4C)OCC(F)(F)[C@H](C4CC4)N3)n2)C1 [15a]  endogenous BCL6 in OCI-Ly1 cells (Homo sapiens, UniProt P41182)           85.5

For the next question, use this compound.
Record C[C@H]1C[C@@H](O)CN(c2ncc(Cl)c(Nc3ccc4c(c3)n(CCC(C)(C)O)c(=O)n4C)n2)C1 (relative stereo) . Reported Dmax: 88.8
